- protocol: Two chamber Ussing type permeability apparatus, transscleral rapamycin delivery
- Assay type: in vitro ADME, human
- assay-context: human, ex-vivo human scleral tissue; order of magnitude, summary of Example 3; read-out: permeability of human sclera to rapamycin

>  <compound>
CO[C@H]1C[C@@H]2CC[C@@H](C)[C@@](O)(O2)C(=O)C(=O)N2CCCC[C@H]2C(=O)O[C@H]([C@H](C)C[C@@H]2CC[C@@H](O)[C@H](OC)C2)CC(=O)[C@H](C)/C=C(\C)[C@@H](O)[C@@H](OC)C(=O)[C@H](C)C[C@H](C)/C=C/C=C/C=C/1C [rapamycin]

>  <Papp at 36 h, 100 μg/mL>
~10 ×10⁻⁶ cm/s

$$$$
